Hey, just so you know, these numbers are from patent US20200087373A1.

- assay_target: T1, human GIP receptor (human, UniProt P48546 22-466)
- T1 construct: whole, on cells; also called hGIPR
- T1 sequence (looked up): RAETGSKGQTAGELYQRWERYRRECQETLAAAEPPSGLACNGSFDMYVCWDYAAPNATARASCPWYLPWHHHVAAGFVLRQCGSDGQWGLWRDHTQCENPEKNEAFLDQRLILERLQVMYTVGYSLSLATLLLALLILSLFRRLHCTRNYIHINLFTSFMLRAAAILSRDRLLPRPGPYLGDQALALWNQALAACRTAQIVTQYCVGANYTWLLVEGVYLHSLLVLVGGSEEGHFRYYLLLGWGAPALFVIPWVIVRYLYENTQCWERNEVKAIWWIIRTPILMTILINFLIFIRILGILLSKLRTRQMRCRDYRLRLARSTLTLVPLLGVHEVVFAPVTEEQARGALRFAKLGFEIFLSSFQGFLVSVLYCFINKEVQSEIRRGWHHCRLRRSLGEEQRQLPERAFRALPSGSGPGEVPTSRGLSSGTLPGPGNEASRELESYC
- assay_details: 125I-hGIP competition binding, COS-7 cells expressing hGIPR;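 also: nonspecific binding taken as radioligand bound by untransfected cells, binding buffer with or without 2% HSA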
Ends that are not written are not given here. * marks the point of attachment. Myristoyl = CCCCCCCCCCCCCC(=O)*; Lauroyl = CCCCCCCCCCCC(=O)*
endpoint_label: log IC50 (log M)
Just the number please, in log M, no unit attached.

// worked examples, log IC50 included
- binder: "{C18 fatty acyl}-TFISDYSIAMDKIHQQDFVNWLLAQK-NH2 [AT127 [hGIP(5-30)NH2-C18/5]]"
  log IC50, log M: -5.7
- binder: "EGTFISDYSIAMDK(Lauroyl)IHQQDFVNWLLAQK-NH2 [AT102 [hGIP(3-30)NH2-C12/16]]"
  log IC50, log M: -7.2

Could you now consider this next binder?
Inquiry: Query: log IC50; subject: EGTFISDYSIAMDKIHQQDFVNWLLAQK(Myristoyl)-NH2 [AT112 [hGIP(3-30)NH2-C14/30]]
Reply text: -6.3
